biological target: NAD-dependent protein deacylase sirtuin-5, mitochondrial (Homo sapiens); experiment: blockers of sirtuin-5 deacylase activity – biochemical, fluorescence imaging, single point, set 5, primary screen (AID 652115); conditions: Purified SirT5, succinyl-peptide AMC, trypsin-coupled fluorescence; at 15 µM; stronger effect = higher value
Screen size: about 330,000 compounds; about 3,800 (1.2%) were called active. Many of the other results were omitted from the sample, so actives are more common in it than they were.
endpoint: inhibition (%)
Report the value in % with no unit label.

Please list inhibition recorded for the compound CCOC(=O)C(C)Oc1cccc2c(=O)n(CC(=O)NCCc3ccc(OC)c(OC)c3)ccc12 (stereo not drawn)
-3.89

Please list inhibition recorded for the compound COc1ccc2c3c([nH]c2c1)[C@H](CO)N(Cc1nccs1)CC31CCN(Cc2ccncc2)CC1
1.68

Please list inhibition recorded for the compound O=C(O)C(c1ccccc1)N1C(=O)/C(=C\c2ccc(-c3cccc(Cl)c3)o2)SC1=S (stereo not drawn)
43.9

Please list inhibition recorded for the compound C[C@H]1CN([C@@H](C)CO)S(=O)(=O)c2ccc(C#Cc3ccccc3)cc2O[C@H]1CN(C)S(=O)(=O)c1cn(C)cn1
2.56

Please list inhibition recorded for the compound COc1ccc(Cn2c(=S)[nH]c3cc(C(=O)N4CCCCC4)ccc3c2=O)cc1
16.6

Please list inhibition recorded for the compound COCC(=O)Nc1ccc2c(c1)C(=O)N(C)C[C@@H](OC)[C@H](C)CN(C(=O)c1cccnc1)[C@H](C)CO2
5.23

Please list inhibition recorded for the compound COCC#Cc1cnc2c(c1)C(=O)N([C@H](C)CO)C[C@H](C)[C@H](CN(C)C(=O)Nc1ccccc1OC)O2
3.78

Please list inhibition recorded for the compound CO[C@@H]1CC[C@H]2CCN(C)C(=O)[C@@H](C)CN(C)C(=O)c3cccc(C#N)c3OC[C@@H]1O2
-2.44

###

biological target: NAD-dependent protein deacylase sirtuin-5, mitochondrial (Homo sapiens) (UniProt Q9NXA8); experiment: blockers of sirtuin-5 deacylase activity – biochemical, fluorescence imaging, single point, set 5, primary screen (AID 652115); details: Purified SirT5, succinyl-peptide AMC, trypsin-coupled fluorescence; at 15 µM; stronger effect = higher value
Sequence (Q9NXA8 whole entry, looked up): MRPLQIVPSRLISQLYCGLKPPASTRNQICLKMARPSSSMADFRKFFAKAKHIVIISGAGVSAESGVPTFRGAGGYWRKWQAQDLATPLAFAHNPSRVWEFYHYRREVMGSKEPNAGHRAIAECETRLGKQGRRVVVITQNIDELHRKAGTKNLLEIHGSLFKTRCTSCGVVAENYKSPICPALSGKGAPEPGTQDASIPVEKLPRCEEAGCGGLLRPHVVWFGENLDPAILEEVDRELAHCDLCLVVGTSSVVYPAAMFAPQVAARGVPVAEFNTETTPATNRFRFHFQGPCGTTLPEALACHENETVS
Hit rate of the full screen: of about 330,000 compounds, about 3,800 (1.2%) were called active. Shown is part of a subset that was picked to be rich in actives.
Can you tell me inhibition for the items I'm about to list?
Report the value in % with no unit label.

Please report the measured inhibition for Cc1nc(N2[C@H](CO)[C@H](c3ccccc3)[C@H]2CNCC2CCCCC2)sc1C tested on NAD-dependent protein deacylase sirtuin-5, mitochondrial (Homo sapiens) (UniProt Q9NXA8).
5.49

Please report the measured inhibition for CCOc1ccccc1Nc1ccc(C(=O)O)cc1[N+](=O)[O-] tested on NAD-dependent protein deacylase sirtuin-5, mitochondrial (Homo sapiens) (UniProt Q9NXA8).
-0.287

Please report the measured inhibition for CCNC(=O)c1cc2c(c(-c3cccc(C4=CCCC4)c3)n1)[C@H](CCO)N([S@@](=O)C(C)(C)C)C2 tested on NAD-dependent protein deacylase sirtuin-5, mitochondrial (Homo sapiens) (UniProt Q9NXA8).
13.7

Please report the measured inhibition for Cc1ccc(S(=O)(=O)N[C@@H]2CC[C@H](CCn3cc(-c4cccc(F)c4)nn3)O[C@@H]2CO)cc1 tested on NAD-dependent protein deacylase sirtuin-5, mitochondrial (Homo sapiens) (UniProt Q9NXA8).
-2.4

Please report the measured inhibition for CCCNC(=O)N1[C@@H](C#N)[C@H](c2ccc(-c3ccc(C(=O)N(C)C)cc3)cc2)[C@@H]1CO tested on NAD-dependent protein deacylase sirtuin-5, mitochondrial (Homo sapiens) (UniProt Q9NXA8).
4.75

Please report the measured inhibition for O=C(NCC1CC1)[C@@H]1[C@@H](CO)[C@@H]2Cn3c(ccc(-c4ccccc4)c3=O)[C@H]1N2C(=O)C1CC1 tested on NAD-dependent protein deacylase sirtuin-5, mitochondrial (Homo sapiens) (UniProt Q9NXA8).
-28

Please report the measured inhibition for O=C(C[C@H]1CC[C@@H]2[C@H](COC[C@H](O)CN2S(=O)(=O)c2ccc(Cl)cc2)O1)N[C@@H]1CCN(Cc2ccccc2)C1 tested on NAD-dependent protein deacylase sirtuin-5, mitochondrial (Homo sapiens) (UniProt Q9NXA8).
0.669

Please report the measured inhibition for CO[C@H]1CN(C)C(=O)c2ccc(NC(=O)Nc3ccc(Cl)cc3)cc2OC[C@H](C)N(C(=O)Nc2c(C)noc2C)C[C@@H]1C tested on NAD-dependent protein deacylase sirtuin-5, mitochondrial (Homo sapiens) (UniProt Q9NXA8).
-0.008

###

Can you tell me inhibition for the items I'm about to list?
biological target: NAD-dependent protein deacylase sirtuin-5, mitochondrial (Homo sapiens) (UniProt Q9NXA8); assay: blockers of sirtuin-5 deacylase activity – biochemical, fluorescence imaging, single point, set 5, primary screen (AID 652115); settings: Purified SirT5, succinyl-peptide AMC, trypsin-coupled fluorescence; at 15 µM; stronger effect = higher value
Among all 330,000 compounds or so, about 3,800 (1.2%) were called active. What follows is part of a selection rich in actives, with near analogues and random picks from the rest.
Report the value in % with no unit label.

Please list inhibition recorded for the molecule COc1ccc(S(=O)(=O)Nc2ccc3c(c2)C(=O)N([C@@H](C)CO)C[C@@H](C)[C@H](CN(C)Cc2ccc(C(F)(F)F)cc2)OCCCC[C@@H](C)O3)cc1
16.7

Please list inhibition recorded for the molecule C[C@H](CO)N1C[C@H](C)[C@H](CN(C)S(=O)(=O)c2ccc(F)cc2)OCCCC[C@H](C)Oc2ccc(NS(=O)(=O)c3ccc(Cl)cc3)cc2C1=O
17.6

Please list inhibition recorded for the molecule C[C@@H]1CN([C@H](C)CO)C(=O)c2cc(NS(=O)(=O)c3cccs3)ccc2O[C@@H]1CN(C)Cc1ccc(C(F)(F)F)cc1
2.33

###

target: NAD-dependent protein deacylase sirtuin-5, mitochondrial (Homo sapiens); test: blockers of sirtuin-5 deacylase activity – biochemical, fluorescence imaging, single point, set 5, primary screen (AID 652115); settings: Purified SirT5, succinyl-peptide AMC, trypsin-coupled fluorescence; at 15 µM; stronger effect = higher value
The campaign covered roughly 330,000 compounds. About 3,800 (1.2%) were called active. The list comes from a sample in which actives are over-represented; it also holds close analogues and randomly drawn compounds.
Can you tell me inhibition for the items I'm about to list?
Report the value in % with no unit label.

Please list inhibition recorded for the molecule COc1ccccc1S(=O)(=O)N(C)C[C@@H]1Oc2cc(C#CCC3CCCC3)ccc2S(=O)(=O)N([C@H](C)CO)C[C@H]1C
18.3

Please list inhibition recorded for the molecule COc1ccc2c3c(n(C)c2c1)[C@H](CO)N(C(C)=O)CC31CCN(Cc2cccnc2)CC1
-0.634

Please list inhibition recorded for the molecule COC(=O)C1=C(C)N(C)C(=O)NC1c1ccc([N+](=O)[O-])o1 (configuration not stated)
17.2

Please list inhibition recorded for the molecule COCC#Cc1ccc2c(c1)O[C@@H](CN(C)S(C)(=O)=O)[C@H](C)CN([C@H](C)CO)S2(=O)=O
-0.381

Please list inhibition recorded for the molecule COc1cccc(C#Cc2ccc3c(c2)[C@H]2[C@H](CCN2C(=O)CC2CC2)[C@H](CO)N3)c1
0.183

Please list inhibition recorded for the molecule CO[C@H]1CC[C@H]2CCOc3c(C#N)cccc3C(=O)N(C)CC3(CCCCC3)CC(=O)N(C)C[C@@H]1O2
-0.489

Please list inhibition recorded for the molecule CC(Oc1ccc(F)cc1F)C(=O)/C=C/N(C)C (configuration not stated)
38.2

Please list inhibition recorded for the molecule O=C(CN1CCOCC1)N1CCCCN2[C@@H](CO)[C@H](c3ccc(-c4ccccc4)cc3)[C@@H]2C1
-2

Please list inhibition recorded for the molecule O=C(C=CC(=O)Nc1ccc(F)cc1F)Nc1ccc(F)cc1F
2.61

Please list inhibition recorded for the molecule COc1ccccc1S(=O)(=O)N(C)C[C@H]1Oc2cc(C#CCC3CCCC3)ccc2S(=O)(=O)N([C@@H](C)CO)C[C@H]1C
16.1

Please list inhibition recorded for the molecule O=C(CN1CCOCC1)N1CCCCN2[C@H](C1)[C@H](c1ccc(-c3ccccc3F)cc1)[C@@H]2CO
22.6

Please list inhibition recorded for the molecule NC(=O)c1ccc(Nc2ccc3nonc3c2[N+](=O)[O-])cc1
2.49

Please list inhibition recorded for the molecule O=C(CN1CCOCC1)N1CCCCN2[C@H](CO)[C@H](c3ccc(-c4ccccc4)cc3)[C@@H]2C1
-2.91

Please list inhibition recorded for the molecule C[C@H]1CCCCO[C@@H](CN(C)C(=O)c2ccccc2)[C@@H](C)CN([C@@H](C)CO)C(=O)c2cc(NS(=O)(=O)c3ccccc3)ccc2O1
0.494

Please list inhibition recorded for the molecule C[C@H]1CN([C@@H](C)CO)C(=O)c2cc(C#CC3CCCC3)cnc2O[C@@H]1CN(C)C(=O)Cc1ccccn1
0.934

Please list inhibition recorded for the molecule CO[C@@H]1CN(C)C(=O)c2cc(NC(=O)C3CC3)ccc2OC[C@H](C)N(CC2CC2)C[C@H]1C
-3.23

Please list inhibition recorded for the molecule CCCC#Cc1ccc2c(c1)O[C@@H](CN(C)S(=O)(=O)c1cccc(OC)c1)[C@H](C)CN([C@@H](C)CO)S2(=O)=O
0.047
